experimentalTarget: UniProt P22001
method: Kv1.3 potassium channel blocker activity, automated whole-cell patch clamp (Patchliner)
statedConditions: CHO-K1 cells stably expressing Kv1.3; whole cell current inhibition; read-out: Kv1.3_IC50
pIC50: −log10 of the molar value.
parameterMeasured: pIC50

Note down pIC50 recorded for O=C([C@H]1CCNC1)N1CCC[C@H]([C@@H](O)c2c(O)ccc(Cl)c2Cl)CC1 (single isomer, unassigned; isomer 4)
> 5.00

Note down pIC50 recorded for CC(=O)N1CCC([C@@H](N)c2cc(Cl)c(Cl)cc2O)CC1 (single isomer, unassigned)
> 6.30

Note down pIC50 recorded for CNC(c1cc(Cl)c(Cl)cc1O)C1CCNCC1 (stereo not drawn)
> 5.00

Note down pIC50 recorded for NC(=O)N1CCC([C@@H](N)c2cc(Cl)c(Cl)cc2O)CC1 (single isomer, unassigned)
> 5.00

Note down pIC50 recorded for Oc1cc(Cl)c(Cl)cc1[C@@H](O)C1CCNCC1 (single isomer, unassigned)
> 5.00

Note down pIC50 recorded for N[C@@H](c1cc(Cl)c(Cl)cc1O)C1CCN(C(=O)c2ccn[nH]2)CC1
> 5.00

Note down pIC50 recorded for N[C@@H](c1cc(Cl)c(C2=CCCC2)cc1O)C1CCN(C(=O)[C@H](O)CO)CC1
> 4.52

Note down pIC50 recorded for N[C@@H](c1cc(Cl)c(Cl)cc1O)C1CC2CC1CN2C(=O)[C@H](O)CO (stereo partly drawn)
> 5.00

Note down pIC50 recorded for NC(c1cc(Cl)c(Cl)c(F)c1O)C1CCN(C(=O)[C@H](O)CO)CC1 (stereo partly drawn)
> 5.00

Note down pIC50 recorded for CO[C@@H](CO)C(=O)N1CCC([C@@H](N)c2cc(Cl)c(Cl)cc2O)CC1
> 5.00

Note down pIC50 recorded for Cn1cc(C(=O)N2CCC([C@@H](N)c3cc(Cl)c(Cl)cc3O)CC2)ncc1=O
> 6.30

Note down pIC50 recorded for Cc1cc(O)c([C@H](N)C2CCN(C(=O)c3ccc(=O)n(CCO)c3)CC2)cc1Cl
> 6.30

Note down pIC50 recorded for N[C@@H](c1cc(Cl)c(Cl)cc1O)C1CCN(C(=O)[C@H]2C[C@@H](O)C2)CC1
> 5.00

Note down pIC50 recorded for NC(c1cc(Cl)c(Cl)cc1O)C1CNC1 (stereo not drawn)
> 5.00

Note down pIC50 recorded for CC(N)(c1cc(Cl)c(Cl)cc1O)C1CCNCC1 (stereo not drawn)
> 4.52

====

experimentalTarget: Kv1.3 potassium channel (Homo sapiens)
Construct: expressed in transfected cells
method: Kv1.3 potassium channel blocker activity, automated whole-cell patch clamp (Patchliner)
Format: cell-based
statedConditions: CHO-K1 cells stably expressing Kv1.3; whole cell current inhibition; read-out: Kv1.3_IC50
pIC50: −log10 of the molar value.
I'd be grateful if you could share measured pIC50 for these entries.

Note down pIC50 recorded for CN1CCC([C@@H](O)c2cc(Cl)c(Cl)cc2O)CC1 (single isomer, unassigned)
> 5.00

Note down pIC50 recorded for C[C@@H](O)C(=O)N1CCC([C@@H](N)c2cc(Cl)c(Cl)cc2O)CC1
> 5.00

Note down pIC50 recorded for NC(=O)C(c1cc(Cl)c(Cl)cc1O)C1CCNCC1 (centres unmarked)
> 5.00

Note down pIC50 recorded for Cc1cc(O)c([C@H](N)C2CCN(C(=O)[C@@H]3OCC[C@@H]3O)CC2)cc1Cl
> 6.30

Note down pIC50 recorded for N[C@@H](c1c(O)ccc2ccccc12)C1CCN(C(=O)[C@H](O)CO)CC1
> 5.00

Note down pIC50 recorded for N[C@@H](c1cc(Cl)c(Cl)cc1O)[C@@H]1CCNC1 (single isomer, unassigned; diastereoisomer 2)
> 5.00

Note down pIC50 recorded for CC(=O)N1CCC(C(Nc2ccccn2)c2cc(Cl)c(Cl)cc2O)CC1 (centres unmarked)
> 4.52

Note down pIC50 recorded for CNC(c1cc(Cl)c(Cl)cc1O)C1CCN(C(=O)[C@H](O)CO)CC1 (some centres unmarked)
> 5.00

Note down pIC50 recorded for COCC(=O)N1CCC([C@@H](N)c2cc(Cl)c(Cl)cc2O)CC1
> 6.30

Note down pIC50 recorded for Cc1cc(O)c([C@H](N)C2CCN(C(=O)c3c[nH]c(=O)c(Cl)c3)CC2)cc1Cl
> 6.30

Note down pIC50 recorded for CC(C)c1cc(O)c([C@H](N)C2CCN(C(=O)[C@H](O)CO)CC2)cc1Cl
> 4.52

====

experimentalTarget: Kv1.3 potassium channel (Homo sapiens, UniProt P22001)
Sequence (P22001 whole entry): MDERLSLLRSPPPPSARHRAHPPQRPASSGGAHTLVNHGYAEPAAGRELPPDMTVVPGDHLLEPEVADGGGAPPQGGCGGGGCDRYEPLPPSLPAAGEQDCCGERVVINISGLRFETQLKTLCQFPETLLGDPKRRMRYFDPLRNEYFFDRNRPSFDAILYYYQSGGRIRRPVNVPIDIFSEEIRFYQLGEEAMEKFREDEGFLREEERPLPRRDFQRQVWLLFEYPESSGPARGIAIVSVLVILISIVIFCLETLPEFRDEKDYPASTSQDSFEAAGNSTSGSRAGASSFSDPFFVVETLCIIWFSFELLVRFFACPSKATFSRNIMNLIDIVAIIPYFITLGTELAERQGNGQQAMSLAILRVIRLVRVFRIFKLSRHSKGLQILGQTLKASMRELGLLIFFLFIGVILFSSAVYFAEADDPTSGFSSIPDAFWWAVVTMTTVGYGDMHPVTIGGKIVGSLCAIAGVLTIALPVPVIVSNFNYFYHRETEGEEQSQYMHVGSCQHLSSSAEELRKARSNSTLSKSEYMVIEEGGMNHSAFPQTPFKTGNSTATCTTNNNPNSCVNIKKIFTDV
method: Kv1.3 potassium channel blocker activity, automated whole-cell patch clamp (Patchliner)
statedConditions: CHO-K1 cells stably expressing Kv1.3; whole cell current inhibition; read-out: Kv1.3_IC50
parameterMeasured: IC50

Output reported IC50 of the compound COc1cc(C(=O)N2CCC([C@@H](N)c3cc(Cl)c(C)cc3O)CC2)c[nH]c1=O on Kv1.3 potassium channel (Homo sapiens, UniProt P22001).
< 500 nM

Output reported IC50 of the compound N[C@@H](c1cc(Cl)c(Cl)cc1O)C1CCN(C(=O)c2c[nH]c3ccccc23)CC1 on Kv1.3 potassium channel (Homo sapiens, UniProt P22001).
< 10000 nM

Output reported IC50 of the compound CC(=O)N1CCC(C(O)c2cc(Cl)c(Cl)cc2O)CC1 (stereo not drawn) on Kv1.3 potassium channel (Homo sapiens, UniProt P22001).
< 10000 nM

Output reported IC50 of the compound COc1ccc(C(=O)N2CCC([C@@H](N)c3cc(Cl)c(C)cc3O)CC2)cn1 on Kv1.3 potassium channel (Homo sapiens, UniProt P22001).
< 500 nM

Output reported IC50 of the compound CN1C[C@@H](C(=O)N2CCC([C@@H](N)c3cc(Cl)c(Cl)cc3O)CC2)OCC1=O (single isomer, unassigned; isomer 2) on Kv1.3 potassium channel (Homo sapiens, UniProt P22001).
< 10000 nM

Output reported IC50 of the compound Cc1cc(O)c([C@H](N)C2CCN(C(=O)c3ccc4c(c3)NC(=O)C4)CC2)cc1Cl on Kv1.3 potassium channel (Homo sapiens, UniProt P22001).
< 500 nM

Output reported IC50 of the compound C[C@H](N)C(=O)N1CCC([C@@H](N)c2cc(Cl)c(Cl)cc2O)CC1 (single isomer, unassigned) on Kv1.3 potassium channel (Homo sapiens, UniProt P22001).
< 500 nM

Output reported IC50 of the compound O=S(=O)([C@@H]1CCNC1)N1CCC([C@@H](O)c2cc(Cl)c(Cl)cc2O)CC1 (single isomer, unassigned; isomer 4) on Kv1.3 potassium channel (Homo sapiens, UniProt P22001).
< 500 nM

Output reported IC50 of the compound N[C@@H](c1cc(Cl)c(Cl)cc1O)C1CCN(C(=O)C2CNC(=O)C2)CC1 (stereo partly drawn) on Kv1.3 potassium channel (Homo sapiens, UniProt P22001).
< 500 nM

====

experimentalTarget: hERG channel (Homo sapiens, UniProt Q12809)
Sequence (Q12809 whole entry): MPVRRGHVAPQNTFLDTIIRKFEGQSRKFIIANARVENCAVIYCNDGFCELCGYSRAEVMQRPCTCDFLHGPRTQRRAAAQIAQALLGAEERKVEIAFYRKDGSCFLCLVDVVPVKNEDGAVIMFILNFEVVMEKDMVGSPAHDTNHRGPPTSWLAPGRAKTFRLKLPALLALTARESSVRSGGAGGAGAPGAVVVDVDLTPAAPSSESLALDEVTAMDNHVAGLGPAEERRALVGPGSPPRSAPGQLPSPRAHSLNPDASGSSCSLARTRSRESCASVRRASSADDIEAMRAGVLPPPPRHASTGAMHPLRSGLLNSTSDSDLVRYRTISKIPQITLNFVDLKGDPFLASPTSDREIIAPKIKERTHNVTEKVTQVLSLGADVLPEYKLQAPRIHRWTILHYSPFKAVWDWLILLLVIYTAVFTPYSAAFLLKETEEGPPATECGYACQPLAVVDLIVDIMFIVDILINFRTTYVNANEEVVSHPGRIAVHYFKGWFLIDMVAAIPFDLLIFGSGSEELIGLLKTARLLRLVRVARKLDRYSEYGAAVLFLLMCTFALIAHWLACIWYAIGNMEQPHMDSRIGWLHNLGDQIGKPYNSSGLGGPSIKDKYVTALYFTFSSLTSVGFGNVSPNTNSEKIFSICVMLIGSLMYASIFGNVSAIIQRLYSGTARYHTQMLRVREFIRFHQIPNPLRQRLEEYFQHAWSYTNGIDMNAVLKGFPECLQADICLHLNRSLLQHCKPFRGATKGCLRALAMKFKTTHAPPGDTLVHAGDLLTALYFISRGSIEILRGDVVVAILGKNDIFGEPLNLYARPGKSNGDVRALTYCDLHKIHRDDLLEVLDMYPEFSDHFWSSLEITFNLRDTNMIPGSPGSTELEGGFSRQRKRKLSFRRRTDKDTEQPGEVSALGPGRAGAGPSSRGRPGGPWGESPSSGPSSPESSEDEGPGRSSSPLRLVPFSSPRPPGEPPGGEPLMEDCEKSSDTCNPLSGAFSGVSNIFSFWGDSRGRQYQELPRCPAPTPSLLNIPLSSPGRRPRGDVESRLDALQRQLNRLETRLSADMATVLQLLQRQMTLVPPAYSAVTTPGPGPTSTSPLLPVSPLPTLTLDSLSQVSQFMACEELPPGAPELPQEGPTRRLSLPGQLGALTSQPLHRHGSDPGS
method: hERG electrophysiology, automated whole-cell patch clamp (Patchliner)
pIC50: −log10 of the molar value.
parameterMeasured: pIC50

Output reported pIC50 of the compound C[C@H](O)[C@@H](N)C(=O)N1CCC([C@@H](N)c2cc(Cl)c(Cl)cc2O)CC1 on hERG channel (Homo sapiens, UniProt Q12809).
< 4.52

Output reported pIC50 of the compound N[C@@H](c1cc(Cl)c(Cl)cc1O)C1CCN(C(=O)CCO)CC1 on hERG channel (Homo sapiens, UniProt Q12809).
< 4.52

Output reported pIC50 of the compound Cc1cc([C@H](N)C2CCN(C(=O)[C@H](O)CO)CC2)c(O)cc1Cl on hERG channel (Homo sapiens, UniProt Q12809).
< 4.52

Output reported pIC50 of the compound N[C@@H](c1cc(Cl)c(Cl)cc1O)C1CCN(C(=O)[C@@H]2CCC(=O)NC2)CC1 (single isomer, unassigned; isomer 2) on hERG channel (Homo sapiens, UniProt Q12809).
< 4.52

Output reported pIC50 of the compound N[C@@H](c1cc(Cl)c(Cl)cc1O)C1CCN(S(=O)(=O)C2CNC2)CC1 on hERG channel (Homo sapiens, UniProt Q12809).
< 4.52

Output reported pIC50 of the compound N[C@@H](c1cc(Cl)c(Cl)cc1O)C1CCN(C(=O)C2COCCO2)CC1 (stereo partly shown) on hERG channel (Homo sapiens, UniProt Q12809).
> 4.52

Output reported pIC50 of the compound N[C@@H](c1cc(Cl)c(Cl)cc1O)C1CCN(C(=O)[C@@H]2COCCO2)CC1 on hERG channel (Homo sapiens, UniProt Q12809).
> 4.52

Output reported pIC50 of the compound O=C([C@@H]1CCNC1)N1CCC([C@H](O)c2cc(Cl)c(Cl)cc2O)CC1 (single isomer, unassigned) on hERG channel (Homo sapiens, UniProt Q12809).
< 4.52

Output reported pIC50 of the compound C[C@H](CO)C(=O)N1CCC([C@@H](N)c2cc(Cl)c(Cl)cc2O)CC1 on hERG channel (Homo sapiens, UniProt Q12809).
< 4.52

Output reported pIC50 of the compound N[C@@H](c1cc(Cl)c(Cl)cc1O)C1CCN(C(=O)[C@@H]2OCC[C@@H]2O)CC1 on hERG channel (Homo sapiens, UniProt Q12809).
< 4.52
